- test.target: AII receptor
- test.method.notes: Angiotensin II receptor binding (displacement of 3H-AII)
- condition.description: read-out: Angiotensin II Receptor Binding IC50; Table 26; rat adrenal cortical microsomes, 2 nM 3H-AII, 1 hour, room temperature
attribute.measured: IC50 (nM)

Record excerpt, results attached:
| compound | IC50, nM |
| --- | --- |
| CCCc1nc(-c2c(F)c(F)c(F)c(F)c2F)c(CO)n1Cc1ccc(-c2ccccc2C(=O)O)cc1 [Example 124J] | 680 |
| CCCc1nc(C(=O)OC)c(CO)n1Cc1ccc(-c2ccccc2-c2nnn[nH]2)cc1 | 15 |

P = CCCc1nc(C(F)(F)F)c(C(=O)O)n1Cc1ccc(-c2ccccc2-c2nn[nH]n2)cc1 [Example 265A]
Q = CCCc1nc(C(=O)O)c(C(=O)O)n1Cc1ccc(-c2ccccc2-c2nnn[nH]2)cc1
R = CCCc1nc(C(F)(F)F)c(C=O)n1Cc1ccc(-c2ccccc2C(=O)O)cc1 [Example 140A]
In: Order the entries by their reported IC50, beginning at the minimum. Returns: the labels listed in the requested order.
Out: Q, R, P

A = CCCc1nc(C(F)(F)C(F)(F)F)c(C=O)n1Cc1ccc(-c2ccccc2C(=O)O)cc1 [Example 140B]
B = CCCCc1nc(C(F)(F)C(F)(F)F)c(CO)n1Cc1ccc(-c2ccccc2C(=O)O)cc1 [Example 92A]
In: Hey, between A and B which has a smaller measured IC50? Your answer should be the label attached to the chosen record.
Out: B

I = CCCCc1nc(CO)c(Cl)n1Cc1ccc(-c2ccccc2-c2nn[nH]c2C#N)cc1
II = CCCc1nc(C(F)(F)F)c(C(=O)O)n1Cc1ccc(-c2ccccc2C(=O)O)cc1 [Example 265D]
III = CCCc1nc(C(F)(F)F)c(C=O)n1Cc1ccc(-c2ccccc2-c2nnn[nH]2)cc1 [Example 140C]
IV = CCCc1nc(C(F)(F)C(F)(F)F)c(C(=O)O)n1Cc1ccc(-c2ccccc2C(=O)O)cc1 [Example 265E]
V = CCCc1nc(C(=O)OC)c(C(=O)OC)n1Cc1ccc(-c2ccccc2-c2nnn[nH]2)cc1
In: Hey, quick one: sort these by IC50, largest value first please. Returns: the labels listed in the requested order.
Out: IV, II, I, V, III

P = CCCCc1nc(Cl)c(CO)n1Cc1ccc(-c2ccccc2-c2[nH]nnc2C#N)cc1
Q = CCCc1nc(C)c(C=O)n1Cc1ccc(-c2ccccc2C(=O)O)cc1
In: Hey, between P and Q which has a smaller measured IC50? Your answer should be the label attached to the chosen record.
Out: P

1 = CCCCc1nc(C(F)(F)F)c(C(=O)OCOC(=O)C(C)(C)C)n1Cc1ccc(-c2ccccc2-c2nn[nH]n2)cc1 [Example 314A]
2 = CCCc1nc(C(=O)O)c(CO)n1Cc1ccc(-c2ccccc2-c2nnn[nH]2)cc1
3 = CCCCc1nc(I)c(C=O)n1Cc1ccc(-c2ccccc2-c2nnn[nH]2)cc1 [Example 140K]
4 = CCCCc1nc(C(F)(F)F)c(C(=O)O)n1Cc1ccc(-c2ccccc2-c2nn[nH]n2)cc1 [Example 240A]
In: Order the entries by their reported IC50, beginning at the minimum. Returns: the labels listed in the requested order.
Out: 3, 1, 4, 2
(3: 38 nM, 1: 64 nM, 4: 150 nM, 2: 260 nM)

A = CCCCc1nc(C(F)(F)F)c(C(N)=O)n1Cc1ccc(-c2ccccc2-c2nnn[nH]2)cc1 [Example 140J]
B = CCCCc1nc(Cl)c(CO)n1Cc1ccc(-c2ccccc2-c2n[nH]c(C(F)(F)F)n2)cc1
In: Hey, between A and B which has a smaller measured IC50? Your answer should be the label attached to the chosen record.
Out: A

I = CCC=Cc1nc(Cl)c(CO)n1Cc1ccc(-c2ccccc2-c2nnn[nH]2)cc1
II = CCCCc1nc(Cl)c(C=O)n1Cc1cccc(-c2ccccc2-c2nnn[nH]2)c1 [Example 140L]
In: Lab note: record which item had the higher IC50, I or II . Your answer should be the label attached to the chosen record.
Out: II

I = CCCCc1nc(Cl)c(C(=O)N2CCN(c3ccccc3OC)CC2)n1Cc1ccc(-c2ccccc2-c2nnn[nH]2)cc1
II = CCCc1nc(C(F)(F)C(F)(F)F)c(CO)n1Cc1ccc(-c2ccccc2C(=O)O)cc1 [Example 124B]
III = CCCCc1nc(C(=O)N2CCN(c3ccccc3OC)CC2)c(Cl)n1Cc1ccc(-c2ccccc2-c2nnn[nH]2)cc1
IV = CCCCc1nc(Br)c(C=O)n1Cc1ccc(-c2ccccc2-c2nnn[nH]2)cc1 [Example 140E]
In: Order the entries by their reported IC50, beginning at the minimum. Returns: the labels listed in the requested order.
Out: IV, II, I, III
